tested on: SD rats; test: animal or person; assay type: in vivo; conditions: Rattus norvegicus, iv, read-out: Minimal effective analgesic dose
Where minimal effective dose equals or exceeds 20 mg/kg, the correct label is yes (1); where it does not, the label is no (0).

>  <line-notation>
Cc1cnc2n1-c1ccc(Br)cc1C(c1ccccn1)=NN2CCOC(=O)N(C)C

>  <class-name>
no (0)

$$$$
>  <line-notation>
CC(C)COC(=O)CN1N=C(c2ccccn2)c2cc(Br)ccc2N(C)C1=O

>  <class-name>
yes (1)

$$$$
>  <line-notation>
CC(C)OC(=O)CN1N=C(c2ccccn2)c2cc(Br)ccc2N(C(C)C)C1=O

>  <class-name>
no (0)

$$$$
>  <line-notation>
CC[C@@H](C)OC(=O)CN1N=C(c2ccccn2)c2cc(Br)ccc2-n2c(C)cnc21

>  <class-name>
no (0)

$$$$
>  <line-notation>
Cc1cnc2n1-c1ccc(Br)cc1C(c1ccccn1)=NN2COC(=O)N(C)C

>  <class-name>
no (0)

$$$$
>  <line-notation>
CC(C)OC(=O)CN1C2=NCCN2N=C(c2ccccn2)c2cc(Br)ccc21

>  <class-name>
yes (1)

$$$$
>  <line-notation>
CC(C)OC(=O)CN1N=C(c2ccccn2)c2cc(Br)ccc2N(C)C1=O

>  <class-name>
no (0)

$$$$
>  <line-notation>
Cc1cnc2n1-c1ccc(Br)cc1C(c1ccccn1)=NN2CC(=O)OC1COC1

>  <class-name>
no (0)

$$$$

====

tested on: SD rats; test: animal or person; type: in vivo; conditions: rat, in vivo, iv
Entries annotated with measured Minimal effective analgesic dose
quantity: Minimal effective analgesic dose (mg/kg)

>  <compound>
CC(C)OC(=O)OCC1N=C(c2ccccn2)c2cc(Br)ccc2N(C)C1=O (centres unmarked)

>  <study-system>
SD rats

>  <quantity>
Minimal effective analgesic dose

>  <endpoint-unit>
mg/kg

>  <result>
20

$$$$
>  <compound>
Cc1cnc2n1-c1ccc(Br)cc1C(c1ccccn1)=NC2COS(=O)c1ccccc1 (centres unmarked)

>  <study-system>
SD rats

>  <quantity>
Minimal effective analgesic dose

>  <endpoint-unit>
mg/kg

>  <result>
21.8

$$$$
>  <compound>
CC(=O)OCCC1N=C(c2ccccn2)c2cc(Br)ccc2-n2c(C)cnc21 (centres unmarked)

>  <study-system>
SD rats

>  <quantity>
Minimal effective analgesic dose

>  <endpoint-unit>
mg/kg

>  <result>
20

$$$$
>  <compound>
CCC(=O)OCC1N=C(c2ccccn2)c2cc(Br)ccc2-n2c(C)cnc21 (centres unmarked)

>  <study-system>
SD rats

>  <quantity>
Minimal effective analgesic dose

>  <endpoint-unit>
mg/kg

>  <result>
20

$$$$
>  <compound>
CC(C)OC(=O)CCC1N=C(c2ccccn2)c2cc3nc(C(F)(F)F)sc3cc2N(C)C1=O (centres unmarked)

>  <study-system>
SD rats

>  <quantity>
Minimal effective analgesic dose

>  <endpoint-unit>
mg/kg

>  <result>
40

$$$$
>  <compound>
Cc1cnc2n1-c1ccc(Br)cc1C(c1ccccn1)=NC2COC(=O)c1ccccc1 (centres unmarked)

>  <study-system>
SD rats

>  <quantity>
Minimal effective analgesic dose

>  <endpoint-unit>
mg/kg

>  <result>
20

$$$$
>  <compound>
Cc1cnc2n1-c1ccc(Br)cc1C(c1ccccn1)=NC2COC(=O)C(C)C (centres unmarked)

>  <study-system>
SD rats

>  <quantity>
Minimal effective analgesic dose

>  <endpoint-unit>
mg/kg

>  <result>
10

$$$$
>  <compound>
CC(C)OC(=O)OC1N=C(c2ccccn2)c2cc(Br)ccc2N(C)C1=O (centres unmarked)

>  <study-system>
SD rats

>  <quantity>
Minimal effective analgesic dose

>  <endpoint-unit>
mg/kg

>  <result>
20

$$$$
